Target: Ferrochelatase, mitochondrial (Homo sapiens, UniProt P22830); note: in the data inactive means no Kd found up to 30 µM
Sequence (P22830 whole entry): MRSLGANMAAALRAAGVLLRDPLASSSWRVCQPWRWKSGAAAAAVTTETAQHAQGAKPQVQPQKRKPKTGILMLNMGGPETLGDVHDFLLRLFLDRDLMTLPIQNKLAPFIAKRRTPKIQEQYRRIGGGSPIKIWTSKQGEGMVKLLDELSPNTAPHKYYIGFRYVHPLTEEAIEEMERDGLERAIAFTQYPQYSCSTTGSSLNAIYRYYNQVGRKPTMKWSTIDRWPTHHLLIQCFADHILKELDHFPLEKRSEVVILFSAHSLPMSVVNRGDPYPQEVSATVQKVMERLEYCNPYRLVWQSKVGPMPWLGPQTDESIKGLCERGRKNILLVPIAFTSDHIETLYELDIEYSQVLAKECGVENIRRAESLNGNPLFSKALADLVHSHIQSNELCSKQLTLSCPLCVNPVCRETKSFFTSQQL
Calls of active or inactive are those of the source.
Select the matching outcome among 1 = active, -1 = inactive

What is the recorded call for this molecule in the test? "Cn1ncc(Cl)c1-c1cc(C(=O)N[C@H](CN)Cc2cccc(F)c2)sc1Cl" -1

What is the recorded call for this molecule in the test? "COc1cc2nccc(Oc3ccc(NC(=O)NC4CC4)c(Cl)c3)c2cc1C(N)=O" 1

What is the recorded call for this molecule in the test? "COC(=O)N[C@@H](C)CNc1nccc(-c2cn(C(C)C)nc2-c2cc(Cl)cc(NS(C)(=O)=O)c2F)n1" -1

What is the recorded call for this molecule in the test? "CCn1c(-c2nonc2N)nc2c(C#CC(C)(C)O)ncc(OC[C@H]3CCCNC3)c21" 1

What is the recorded call for this molecule in the test? "O=C(O)[C@]1(Cc2cccc(Nc3nccs3)n2)CC[C@@H](Oc2cccc(Cl)c2F)CC1" -1

What is the recorded call for this molecule in the test? "CO[C@H]1C[C@@H]2CC[C@@H](C)[C@@](O)(O2)C(=O)C(=O)N2CCCC[C@H]2C(=O)O[C@H]([C@H](C)C[C@@H]2CC[C@@H](OCCO)[C@H](OC)C2)CC(=O)[C@H](C)/C=C(\C)[C@@H](O)[C@@H](OC)C(=O)[C@H](C)C[C@H](C)/C=C/C=C/C=C/1C" -1

====

Biological target: General transcription and DNA repair factor IIH helicase subunit XPD (Homo sapiens); note: in the data inactive means no Kd found up to 30 µM
Sequence (P18074 whole entry): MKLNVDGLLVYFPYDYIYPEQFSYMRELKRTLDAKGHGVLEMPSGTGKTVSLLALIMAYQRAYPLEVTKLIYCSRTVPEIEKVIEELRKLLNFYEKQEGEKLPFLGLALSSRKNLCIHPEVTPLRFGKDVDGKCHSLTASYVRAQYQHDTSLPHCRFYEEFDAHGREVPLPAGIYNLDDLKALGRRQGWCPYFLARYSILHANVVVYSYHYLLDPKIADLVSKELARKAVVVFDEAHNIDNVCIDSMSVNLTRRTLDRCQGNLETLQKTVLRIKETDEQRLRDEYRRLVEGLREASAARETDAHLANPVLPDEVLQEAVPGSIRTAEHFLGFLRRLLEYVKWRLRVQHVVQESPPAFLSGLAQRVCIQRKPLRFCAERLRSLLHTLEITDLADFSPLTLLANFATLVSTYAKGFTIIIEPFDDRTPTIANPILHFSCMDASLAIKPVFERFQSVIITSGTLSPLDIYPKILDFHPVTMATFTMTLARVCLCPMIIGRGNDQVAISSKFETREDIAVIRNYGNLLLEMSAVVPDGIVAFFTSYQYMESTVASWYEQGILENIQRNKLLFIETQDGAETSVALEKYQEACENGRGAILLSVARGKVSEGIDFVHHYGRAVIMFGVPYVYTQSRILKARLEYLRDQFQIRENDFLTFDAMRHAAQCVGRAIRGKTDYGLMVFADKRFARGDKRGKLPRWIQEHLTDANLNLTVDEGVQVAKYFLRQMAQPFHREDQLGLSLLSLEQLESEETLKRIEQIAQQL
Settings: read-out: Kd apparent; k-562, colo 205, sk-n-be(2) and mv-4-11; note: in the data inactive means no Kd found up to 30 µM
Activity calls are given as the source filed them.
PROPERTY LABEL: Kd

Data point: CC(C)Nc1cc(-c2c[nH]c(C(=O)N[C@H](CO)c3cccc(Cl)c3)c2)c(Cl)cn1 [ULIXERTINIB] ; Kd = > 30 µM (inactive)

Data point: CCN1CCN(Cc2ccc(-c3cc4c(N[C@H](C)c5ccccc5)ncnc4[nH]3)cc2)CC1 [AEE-788] ; Kd = > 30 µM (inactive)

Data point: CCS(=O)(=O)N1CC(CC#N)(n2cc(-c3ncnc4[nH]ccc34)cn2)C1 [BARICITINIB] ; Kd = > 30 µM (inactive)

Data point: C[C@@H]1CN(Cc2ccc(F)cc2)[C@@H](C)CN1C(=O)c1cc2c(C(=O)C(=O)N(C)C)cn(C)c2cc1Cl [TALMAPIMOD] ; Kd = > 30 µM (inactive)

Data point: CNS(=O)(=O)Nc1nccc(Cc2c(C)c3ccc(Oc4ncccn4)cc3oc2=O)c1F [AVUTOMETINIB] ; Kd = > 30 µM (inactive)

Data point: COc1ccc(-c2ccc3c(N4CCOC[C@@H]4C)nc(N4CCOC[C@@H]4C)nc3n2)cc1CO [AZD-8055] ; Kd = > 30 µM (inactive)

Data point: COc1cc(CCc2cc(NC(=O)c3ccc(N4C[C@@H](C)N[C@@H](C)C4)cc3)n[nH]2)cc(OC)c1 [AZD-4547] ; Kd = > 30 µM (inactive)

Data point: CCn1c(=O)c(-c2cc[nH]n2)cc2c(C)nc(N)nc21 [VOXTALISIB] ; Kd = > 30 µM (inactive)

Data point: Cc1cc(Nc2cc(N3CCN(C)CC3)nc(/C=C/c3ccccc3)n2)n[nH]1 [ENMD-2076] ; Kd = > 30 µM (inactive)

Data point: O=C(O)[C@]1(Cc2cccc(Nc3nccs3)n2)CC[C@@H](Oc2cccc(Cl)c2F)CC1 [MK-5108] ; Kd = > 30 µM (inactive)

Data point: Cc1cn(-c2cc(NC(=O)c3ccc(C)c(Nc4nccc(-c5cccnc5)n4)c3)cc(C(F)(F)F)c2)cn1 [NILOTINIB] ; Kd = > 30 µM (inactive)

Data point: CNC(=O)c1ccc(-c2cnc3ncc(Cc4ccc5ncccc5c4)n3n2)cc1F [CAPMATINIB] ; Kd = > 30 µM (inactive)

Data point: O=C(Nc1ccc(-c2ccnc(Nc3ccc(N4CCOCC4)cc3)n2)cc1)C1CCCN1 (stereo unspecified) [XL-019] ; Kd = > 30 µM (inactive)

Data point: C[C@@H](Nc1cc(F)cc(F)c1)c1cc(C(=O)N(C)C)cc2c(=O)cc(N3CCOCC3)oc12 [AZD-8186] ; Kd = > 30 µM (inactive)

Data point: Cc1cc2c(F)c(Oc3ncnn4cc(OC[C@@H](C)OC(=O)[C@H](C)N)c(C)c34)ccc2[nH]1 [BRIVANIB ALANINATE] ; Kd = > 30 µM (inactive)

Data point: Cn1ncc(Cl)c1-c1cc(C(=O)N[C@H](CN)Cc2cccc(F)c2)sc1Cl [AFURESERTIB] ; Kd = > 30 µM (inactive)

Data point: COC(=O)[C@@]1(O)C[C@H]2O[C@]1(C)n1c3ccccc3c3c4c(c5c6ccccc6n2c5c31)C(=O)NC4 [K-252A] ; Kd = > 30 µM (inactive)

Data point: Cc1ccc(NC(=O)c2ccc(CN3CC[C@H](N(C)C)C3)c(C(F)(F)F)c2)cc1Nc1nccc(-c2cncnc2)n1 [BAFETINIB] ; Kd = > 30 µM (inactive)

Data point: OCCn1cc(-c2cnc3nnn(Cc4ccc5ncccc5c4)c3n2)cn1 [PF-04217903] ; Kd = > 30 µM (inactive)

Data point: CN(C)C(=O)c1cc2cnc(Nc3ccc(N4CCNCC4)cn3)nc2n1C1CCCC1 [RIBOCICLIB] ; Kd = > 30 µM (inactive)

Data point: Cn1cc(-c2ccc3nnc(C(F)(F)c4ccc5ncccc5c4)n3n2)cn1 [JNJ-38877605] ; Kd = > 30 µM (inactive)

Data point: "N[C@@H]1CCCN(c2c(/C=C3\SC(=O)NC3=O)cccc2-c2ccccc2)C1" ; Kd = > 30 µM (inactive)

Data point: COc1cc2nccc(Oc3ccc(NC(=O)Nc4cc(C)on4)c(Cl)c3)c2cc1OC [TIVOZANIB] ; Kd = > 30 µM (inactive)

Data point: "CN1CC[C@@H](c2c(O)cc(O)c3c(=O)cc(-c4ccccc4Cl)oc23)[C@@H]1CO" ; Kd = > 30 µM (inactive)

Data point: COC(=O)N[C@@H](C)CNc1nccc(-c2cn(C(C)C)nc2-c2cc(Cl)cc(NS(C)(=O)=O)c2F)n1 [ENCORAFENIB] ; Kd = > 30 µM (inactive)

Data point: C[C@@H](c1ccc2nccn2c1)n1nnc2ncc(-c3cnn(C)c3)nc21 [SAVOLITINIB] ; Kd = > 30 µM (inactive)

Data point: CN1CCC(COc2cnc(-c3cccc(Cn4nc(-c5cccc(C#N)c5)ccc4=O)c3)nc2)CC1 [TEPOTINIB] ; Kd = > 30 µM (inactive)

Data point: COc1cc(N2CCC(N3CCN(C)CC3)CC2)ccc1Nc1ncnc(Nc2ccccc2S(=O)(=O)C(C)C)n1 [ASP-3026] ; Kd = > 30 µM (inactive)

Data point: "Cc1ccc(S(=O)(=O)Nc2nc3ccccc3nc2Nc2ccc3nsnc3c2)cc1" ; Kd = > 30 µM (inactive)

Data point: CO[C@H]1C[C@@H]2CC[C@@H](C)[C@@](O)(O2)C(=O)C(=O)N2CCCC[C@H]2C(=O)O[C@H]([C@H](C)C[C@@H]2CC[C@@H](OCCO)[C@H](OC)C2)CC(=O)[C@H](C)/C=C(\C)[C@@H](O)[C@@H](OC)C(=O)[C@H](C)C[C@H](C)/C=C/C=C/C=C/1C [EVEROLIMUS] ; Kd = > 30 µM (inactive)

Data point: CC(=O)Nc1cccc(-n2c(=O)n(C3CC3)c(=O)c3c(Nc4ccc(I)cc4F)n(C)c(=O)c(C)c32)c1 [TRAMETINIB] ; Kd = > 30 µM (inactive)

====

Active and inactive are the calls of the source.
Give Kd for every item shown.

// returns Kd for "O=C(Nc1cccc(Cl)c1)Nc1ncc(CCNc2ncnc3ccsc23)s1" with Membrane-associated progesterone receptor component 1 (Homo sapiens, UniProt O00264); value = > 30 µM (inactive)

// returns Kd for "CNS(=O)(=O)Nc1nccc(Cc2c(C)c3ccc(Oc4ncccn4)cc3oc2=O)c1F" with Membrane-associated progesterone receptor component 1 (Homo sapiens, UniProt O00264); value = > 30 µM (inactive)

// returns Kd for "CNC(=O)c1ccc(C)c(-n2c(C)cc(OCc3ccc(F)cc3F)c(Br)c2=O)c1" with Membrane-associated progesterone receptor component 1 (Homo sapiens, UniProt O00264); value = > 30 µM (inactive)

// returns Kd for "CC(C)Nc1cc(-c2c[nH]c(C(=O)N[C@H](CO)c3cccc(Cl)c3)c2)c(Cl)cn1" with Membrane-associated progesterone receptor component 1 (Homo sapiens, UniProt O00264); value = > 30 µM (inactive)

// returns Kd for "OCCn1cc(-c2cnc3nnn(Cc4ccc5ncccc5c4)c3n2)cn1" with Membrane-associated progesterone receptor component 1 (Homo sapiens, UniProt O00264); value = > 30 µM (inactive)

// returns Kd for "COc1cc(CCc2cc(NC(=O)c3ccc(N4C[C@@H](C)N[C@@H](C)C4)cc3)n[nH]2)cc(OC)c1" with Membrane-associated progesterone receptor component 1 (Homo sapiens, UniProt O00264); value = > 30 µM (inactive)

// returns Kd for "Cn1cc(-c2ccc(F)c(C(F)(F)F)c2)nc1C1CCN(c2ncnc3[nH]ncc23)CC1" with Membrane-associated progesterone receptor component 1 (Homo sapiens, UniProt O00264); value = > 30 µM (inactive)

// returns Kd for "O=C(c1ccc(F)c(F)c1Nc1ccc(I)cc1F)N1CC(O)([C@@H]2CCCCN2)C1" with Membrane-associated progesterone receptor component 1 (Homo sapiens, UniProt O00264); value = > 30 µM (inactive)

// returns Kd for "COc1cc2nccc(Oc3ccc(NC(=O)Nc4cc(C)on4)c(Cl)c3)c2cc1OC" with Membrane-associated progesterone receptor component 1 (Homo sapiens, UniProt O00264); value = > 30 µM (inactive)

// returns Kd for "N[C@@H]1CCCN(c2c(/C=C3\SC(=O)NC3=O)cccc2-c2ccccc2)C1" with Membrane-associated progesterone receptor component 1 (Homo sapiens, UniProt O00264); value = > 30 µM (inactive)

// returns Kd for "CC(=O)Nc1cccc(-n2c(=O)n(C3CC3)c(=O)c3c(Nc4ccc(I)cc4F)n(C)c(=O)c(C)c32)c1" with Membrane-associated progesterone receptor component 1 (Homo sapiens, UniProt O00264); value = > 30 µM (inactive)

// returns Kd for "Cc1cc([C@@H](C)Nc2ccccc2C(=O)O)c2nc(N3CCOCC3)cc(=O)n2c1" with Membrane-associated progesterone receptor component 1 (Homo sapiens, UniProt O00264); value = > 30 µM (inactive)

// returns Kd for "CC[C@H](Nc1ncnc2[nH]cnc12)c1nc2cccc(F)c2c(=O)n1-c1ccccc1" with Membrane-associated progesterone receptor component 1 (Homo sapiens, UniProt O00264); value = > 30 µM (inactive)

// returns Kd for "CCCS(=O)(=O)Nc1ccc(F)c(C(=O)c2c[nH]c3ncc(-c4ccc(Cl)cc4)cc23)c1F" with Membrane-associated progesterone receptor component 1 (Homo sapiens, UniProt O00264); value = > 30 µM (inactive)

// returns Kd for "Cc1ccc(-n2nc(C(C)(C)C)cc2NC(=O)NCc2cc(F)ccc2Oc2ccc3c(cnn3CCO)c2)cc1" with Membrane-associated progesterone receptor component 1 (Homo sapiens, UniProt O00264); value = > 30 µM (inactive)

// returns Kd for "Cc1cc(Nc2cc(N3CCN(C)CC3)nc(/C=C/c3ccccc3)n2)n[nH]1" with Membrane-associated progesterone receptor component 1 (Homo sapiens, UniProt O00264); value = > 30 µM (inactive)

// returns Kd for "O=C(O)[C@]1(Cc2cccc(Nc3nccs3)n2)CC[C@@H](Oc2cccc(Cl)c2F)CC1" with Membrane-associated progesterone receptor component 1 (Homo sapiens, UniProt O00264); value = > 30 µM (inactive)
